Quantity measured: melting point (°C)

Guide cases for melting point, answers given:
1. CCCCC(c1ccc2[nH]c(=O)c(-c3ccccc3)nc2c1)n1ccnc1 (stereo not drawn) | 192
2. COC(=O)C(c1ccc(Cl)cc1)c1c(Cl)cc(-n2ncc(=O)[nH]c2=O)cc1Cl (stereo not drawn) | 121

(P) CCOc1ccc2c(c1)C(C)(c1cc(NC(=O)c3cccnc3)ccc1Cl)C(=O)N2S(=O)(=O)c1ccc(C(=O)NC(C)(C)C)cc1OC (stereo not drawn)
(Q) Cc1ccc(N(c2ccc(-c3ccccc3)cc2)c2ccc(C)c(C)c2)cc1C
Request: // returns P or Q , whichever has the lower melting point // return label of chosen record
Result: Q

---

Measured melting point of individual entries

Guide cases for melting point, answers given:
1. Nc1nc2ccc(S(=O)(=O)n3c(CCC(=O)O)cc4cc(Cl)ccc43)cc2o1 | 242 to 249 °C
2. COC(=O)CCNC(=O)c1ccc2c(c1)nc(-c1ccc(C(=N)N)cc1)n2CCCCc1ccccc1 | 184 to 186 °C
3. O=C(CC1CCCCC1)Nc1c(Cl)ccc2nc(CCCNCCCO)ccc12 | 159 to 163 °C

Pending compound:
Request: Tell me measured melting point for "O=[N+]([O-])C(Sc1ccccc1)=C1NCCCS1" please.
Result: 144 to 147 °C

---

Quantity measured: melting point

Guide cases for melting point, answers given:
1. COc1cc2c(cc1OC)CCC(C(=O)O)=C2 | 191 to 194 °C
2. CON(C)C(=O)c1ccc(C(F)(F)F)cc1O | 69 to 70 °C
3. CC(c1ccccc1)C(C)([N+](=O)[O-])[N+](=O)[O-] (configuration not stated) | 76 to 78 °C
4. COc1ccc(-c2ccc3c(c2)c2cc(Cl)cnc2n3S(=O)(=O)c2ccccc2)cc1 | > 220 °C
5. CC1(C)Oc2ccc(C#N)cc2[C@@H](NC(=O)Nc2cccc(-c3cnc[nH]3)c2)[C@@H]1O | 170 to 180 °C
6. CS(=O)(=O)Nc1cc(N)c([N+](=O)[O-])cc1OC1CCCCC1 | 136 to 137 °C
7. COc1nc(OC)c(C(C)C)c(C(C#N)c2cc(Cl)cc(Cl)c2)n1 (configuration not stated) | 135 to 136 °C
8. C(=C\c1cc(/C=C/c2ccc3cc[nH]c3c2)n[nH]1)/c1cccc(OCc2ccccn2)c1 | 193 to 195 °C

Request: Tell me measured melting point for Cn1c(/C=C/C2CC(O)CC(=O)O2)c(-c2ccccc2)c2ccccc2c1=O (configuration not stated) please.
Result: 190 to 193 °C

Request: Tell me measured melting point for COC(=O)c1ccc(CC23CCCCN2C(=O)N(c2cc(Cl)cc(Cl)c2)C3=O)cc1 (configuration not stated) please.
Result: 51 °C

Request: Tell me measured melting point for "CCSCc1ccc2[nH]c(NC(=O)OC)nc2c1" please.
Result: 229 to 231 °C

Request: Tell me measured melting point for "CC(C)C[C@@H](CC=O)NC(=O)[C@H](Cc1c[nH]cn1)NC(=O)[C@H](Cc1ccccc1)NC(=O)OCc1ccccc1" please.
Result: 173 to 175 °C

Request: Tell me measured melting point for "N#CCCn1c2ccccc2c2cc([N+](=O)[O-])ccc21" please.
Result: 225 °C

Request: Tell me measured melting point for "COc1cc2ncc(N[C@H]3CC[C@@H](O)CC3)nc2cc1OC" please.
Result: 65 to 67 °C

Request: Tell me measured melting point for CC(Cc1ccc(C(=O)C(C)(C)O)cc1)C(=O)O (configuration not stated) please.
Result: 57 °C

Request: Tell me measured melting point for "COc1cc2c(cc1Nc1ncc(Cl)c(N[C@H]3[C@@H](C(N)=O)[C@@H]4C=C[C@H]3C4)n1)CCN(CC(=O)N1CCOCC1)CC2" please.
Result: 163 °C

Request: Tell me measured melting point for CCOC(=O)C1=C(N)N=C(OCC)C(C(=O)OCC)C1c1ccc(-c2ccccc2)cc1 (configuration not stated) please.
Result: 145 °C
